Species: Rattus norvegicus
Assay type: toxicity, organism-based, Sprague-Dawley
Settings: in vivo, iv, 0 mg/kg, 24 h, vehicle control, tissue Blood, dose level Control, time 1 day, vehicle 100 % SALINE
Description: DrugMatrix - Regimen: Single
readoutLabel: ABSOLUTE BASOPHIL
Respond with a number, then the unit of measure.

Q: Recorded ABSOLUTE BASOPHIL for CC(=O)[C@]1(O)Cc2c(O)c3c(c(O)c2[C@@H](O[C@H]2C[C@H](N)[C@H](O)[C@H](C)O2)C1)C(=O)c1ccccc1C3=O [IDARUBICIN] , please?
Ans: 280 cells/µL

====

Species: Rattus norvegicus
Experiment: DrugMatrix - Regimen: Daily Repeat
Assay type: toxicity, organism-based, Sprague-Dawley
Set-up: regimen Daily Repeat, gender Male, age 6-8 weeks
Conditions: in vivo, po, 1500 mg/kg, 120 h, tissue Blood, route oral GAVAGE, dose level High, time 5 day, vehicle .5 % CMC
readoutLabel: ERYTHROCYTE COUNT (x10E6/uL)
Numbers only, in x10E6/uL.

Look over these answered cases.
| molecule | ERYTHROCYTE COUNT (x10E6/uL) |
| --- | --- |
| Cc1ccc(S(=O)(=O)NC(=O)NN2CCCCCC2)cc1 [TOLAZAMIDE] | 6.17 |
| O=C(O)CCc1nc(-c2ccccc2)c(-c2ccccc2)o1 [OXAPROZIN] | 5.71 |
| COc1cc(/C=C/C(=O)O)ccc1O [FERULATE] | 6.33 |

Could I get ERYTHROCYTE COUNT for every one of these entries?
1. COc1ccc(Cl)cc1C(=O)NCCc1ccc(S(=O)(=O)NC(=O)NC2CCCCC2)cc1 [GLYBURIDE]
2. CC[C@H]1OC(=O)[C@H](C)[C@@H](O[C@H]2C[C@@](C)(OC)[C@@H](O)[C@H](C)O2)[C@H](C)[C@@H](O[C@@H]2O[C@H](C)C[C@H](N(C)C)[C@H]2O)[C@](C)(O)C[C@@H](C)C(=O)[C@H](C)[C@@H](O)[C@]1(C)O [ERYTHROMYCIN]

Ans:
1: 6.13; 2: 6.53
